# Tested on: A498 renal
# ASSAY_SUMMARY: NCI tumour cell line growth inhibition, 48 h
TEST_READOUT: TGI

Here is how some compounds turned out for TGI.
COMPOUND: CCOC(=O)Cc1c(Cc2[nH]c(C(=O)OCc3ccccc3)c(CC(=O)OCC)c2CC(=O)OCC)[nH]c(C(=O)OCc2ccccc2)c1CC(=O)OCC
TGI: > 100 µM
--
COMPOUND: CCOC(=O)c1c(O)[nH]c(=O)c(CC)c1C
TGI: > 100 µM
--
COMPOUND: O=C(O)c1cccc(S(=O)(=O)NN2C(=O)CSC2c2ccccc2)c1 (stereo not drawn)
TGI: > 100 µM
--
COMPOUND: O/N=C1\CCc2cc(-c3nc(C4CCNCC4)[nH]c3-c3ccncc3)ccc21
TGI: > 25 µM
--
COMPOUND: CC12CC3CC/C(=N\O)C(C1)C3(N1CCOCC1)C/C2=N/O (stereo not drawn)
TGI: > 100 µM

Now turn to the next compound.
Query :: Param item = "Cc1cccc(/C=N/NC(=S)NCc2ccccn2)n1" ; retrieve measured TGI.
Result :: > 100 µM

###

# Tested on: HOP-92 NSCLC
# ASSAY_SUMMARY: NCI tumour cell line growth inhibition, 48 h
TEST_READOUT: log10(TGI) (log10 of the value in µM)
Values reflect log10 of reported TGI (µM).

Guide cases for log10(TGI), answers given:
COMPOUND: COc1cc2c(cc1OC)C(=O)C(Br)CC2 (configuration not stated)
MEASURED_NUMBER: 1.09
--
COMPOUND: COc1ccccc1C(=O)/C=C/c1cc2cccc(OC)c2[nH]c1=O
MEASURED_NUMBER: 0.32
--
COMPOUND: CC(CC(=O)CO[C@H]1[C@H](O)[C@@H](O)[C@@H](O)[C@@H]2NC(=O)c3c(cc4c(c3O)OCO4)[C@H]21)OC1OC(CO)C(O)C(O)C1O (some centres not stated)
MEASURED_NUMBER: 0.66
--
COMPOUND: OC1c2ccccc2[C@@H]2[C@H]1[C@@H](c1ccccc1)C1(Cc3ccccc3C1O)[C@H]2c1ccccc1 (some centres not stated)
MEASURED_NUMBER: 1.10
--
COMPOUND: Cn1nc(-c2ccccc2NC(=O)C(F)(F)F)c(=O)n(C)c1=S
MEASURED_NUMBER: 1.71

Query :: For the compound "O=[N+]([O-])c1ccc(Sc2ncccn2)c([N+](=O)[O-])c1" , what log10(TGI) is on record?
Result :: 0.60

###

Items are presented alongside their recorded TGI.
# Tested on: DMS 273 small cell lung
# ASSAY_SUMMARY: NCI tumour cell line growth inhibition, 48 h

Sample records with TGI:
SAMPLE_SMILES: CCOC(=O)c1ncoc1[C@H]1COC(C)(C)O1
RESULT: > 100 µM

SAMPLE_SMILES: COc1ccc(/C=C2/CCCC/C2=N/O)cc1
RESULT: > 100 µM

SAMPLE_SMILES: C/C(=N\N(C)C)c1sc(-n2nc(-c3ccccc3)cc2-c2ccccc2)nc1C
RESULT: > 100 µM

Alright, here's another molecule for you.
Query :: GET /values?readout=TGI&item= "CC(=O)Oc1c(C)n(CCCl)ccc1=O"
Result :: > 100 µM

###

# Test system: LOX IMVI melanoma
# ASSAY_SUMMARY: NCI tumour cell line growth inhibition, 48 h
TGI by entry:

COMPOUND: COc1ccc(/C=C2/CCCC/C2=N/O)cc1
TEST_READOUT: TGI
RESULT: > 100 µM

COMPOUND: Cc1cc2nc(N3C(=O)/C(=C/c4cccc([N+](=O)[O-])c4)N=C3c3ccccc3)sc2cc1C
TEST_READOUT: TGI
RESULT: 55.8 µM

COMPOUND: O=c1[nH]c2cc(C(F)(F)F)ccc2nc1Cc1ccccc1
TEST_READOUT: TGI
RESULT: > 100 µM

COMPOUND: Cc1c(C(=O)CSc2nc3ccc([N+](=O)[O-])cc3[nH]2)c(=O)n(-c2ccccc2)n1C
TEST_READOUT: TGI
RESULT: > 100 µM

COMPOUND: CCC1(OC(=O)CN2CCN(CCO)CC2)C(=O)OCc2c1cc1n(c2=O)Cc2cc3ccccc3nc2-1 (stereo not given)
TEST_READOUT: TGI
RESULT: 1.58 µM

Query :: Could you tell me which TGI is on file for "O=C(c1ccc(Cl)cc1Cl)N(Cc1cccnc1)C(=S)N(Cc1cccnc1)C(=O)c1ccc(Cl)cc1Cl" ?
Result :: 16.7 µM

Query :: Would you mind telling me what TGI value was observed for "Cn1ncc2cc3c(Nc4ccc(Cl)cc4)cccc3nc21" ?
Result :: 41.4 µM

Query :: Fill blank: measured TGI of the compound "CC[C@@H](CCCC[C@@H]1CC[C@H]2CC(=O)C[C@@H]12)OC" is ____.
Result :: > 100 µM
